Entry source: PubChem BioAssay (EPA / NIEHS)

biological target: Estrogen receptor (Homo sapiens); test: OT_ER_ERaERa_0480: Odyssey Thera (OT) 8-hour HEK293T Protein-Complementation Assay for Estrogen Receptor-alpha/-alpha Homodimer (AID 2283351);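 note: rise in fluorescence from reassembled reporter fragments on ERα LBD homodimer in nucleus or whole cell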
Results filed as inconclusive are left out. Active and inactive are the calls of the source. Rule for the calls: active = hit-call score of the fitted dose curve at least 0.9, where 1 is the maximum; inconclusive = response in the unintended direction; inactive = score below 0.9.
Pick from 1 = active, -1 = inactive when you respond.

Query: recorded result category for FC(F)(F)c1ccc(Cl)cc1 in this test -1

Query: recorded result category for CCN(CC)c1ccccc1 in this test -1

Query: recorded result category for O=C(O)C1C(C(=O)O)C2(Cl)C(Cl)=C(Cl)C1(Cl)C2(Cl)Cl (configuration not stated) in this test -1

Query: recorded result category for O=P(OCC(Br)CBr)(OCC(Br)CBr)OCC(Br)CBr (configuration not stated) in this test -1

Query: recorded result category for CCCCc1ccccc1 in this test -1

Query: recorded result category for CCCCN(CCCC)SN(C)C(=O)Oc1cccc2c1OC(C)(C)C2 in this test -1

Query: recorded result category for CCCCc1ccc(O)cc1 in this test 1
